target: cat Tas1r1-Tas1r3 (Felis catus, UniProt A0ABI7Z2I4); test: Calcium mobilization assay (FLIPR) in HEK293T cells expressing cat Tas1r1-Tas1r3 and mGα15i1
Sequence (A0ABI7Z2I4 entry or part of it): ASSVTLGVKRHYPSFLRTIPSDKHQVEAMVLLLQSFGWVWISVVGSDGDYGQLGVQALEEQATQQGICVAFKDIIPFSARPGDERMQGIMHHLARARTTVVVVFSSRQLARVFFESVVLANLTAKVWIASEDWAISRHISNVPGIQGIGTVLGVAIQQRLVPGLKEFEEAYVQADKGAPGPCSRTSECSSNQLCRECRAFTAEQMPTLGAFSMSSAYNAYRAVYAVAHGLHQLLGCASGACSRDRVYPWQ
Sequence (Q49KI5 25-865, further chain): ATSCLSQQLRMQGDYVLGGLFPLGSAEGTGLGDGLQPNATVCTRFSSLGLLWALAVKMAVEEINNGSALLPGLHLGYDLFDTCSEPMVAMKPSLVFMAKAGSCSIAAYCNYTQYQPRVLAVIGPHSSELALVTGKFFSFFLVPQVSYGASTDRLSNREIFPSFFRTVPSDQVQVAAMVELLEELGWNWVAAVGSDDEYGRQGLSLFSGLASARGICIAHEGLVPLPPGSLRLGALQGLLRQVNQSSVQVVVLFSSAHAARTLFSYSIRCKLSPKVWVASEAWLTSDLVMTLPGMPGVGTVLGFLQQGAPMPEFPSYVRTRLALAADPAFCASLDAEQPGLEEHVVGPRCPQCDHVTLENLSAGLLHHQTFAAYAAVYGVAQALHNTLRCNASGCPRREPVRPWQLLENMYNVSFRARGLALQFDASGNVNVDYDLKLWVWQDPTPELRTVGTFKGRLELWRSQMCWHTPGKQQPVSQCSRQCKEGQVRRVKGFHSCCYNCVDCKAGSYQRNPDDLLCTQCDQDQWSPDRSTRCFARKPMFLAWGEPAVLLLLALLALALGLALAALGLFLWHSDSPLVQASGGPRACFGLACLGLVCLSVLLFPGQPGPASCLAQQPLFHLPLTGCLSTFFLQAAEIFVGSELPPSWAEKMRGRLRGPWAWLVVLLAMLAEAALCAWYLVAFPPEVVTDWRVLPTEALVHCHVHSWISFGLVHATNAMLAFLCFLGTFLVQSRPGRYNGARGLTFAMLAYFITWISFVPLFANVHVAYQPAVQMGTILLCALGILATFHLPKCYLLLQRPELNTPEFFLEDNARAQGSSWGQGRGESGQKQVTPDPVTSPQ
pEC50: −log10 of the molar value.
pEC50 overview
property measured: pEC50

compound=N[C@@H](CS)C(=O)O modifier== result_number=1.88
compound=CSCC[C@H](N)C(=O)O modifier=< result_number=1.52
compound=N[C@@H](Cc1ccc(O)cc1)C(=O)O modifier== result_number=1.65
compound="O=c1[nH]c(=O)c2ncn([C@@H]3O[C@H](COP(=O)(O)O)[C@@H](O)[C@H]3O)c2[nH]1 [XMP, Xanthosine 5ʹ-monophosphate]" modifier== result_number=3.32
compound=N[C@@H](Cc1c[nH]cn1)C(=O)O modifier== result_number=2.01
compound="Nc1nc2c(ncn2[C@@H]2O[C@H](COP(=O)(O)O)[C@@H](O)[C@H]2O)c(=O)[nH]1 [GMP, Guanosine 5ʹ-monophosphate]" modifier== result_number=3.49
compound=N[C@@H](Cc1c[nH]c2ccccc12)C(=O)O modifier== result_number=2.20
compound=CC(C)C[C@H](N)C(=O)O modifier== result_number=1.50
compound="C[C@H](N)C(=O)O [L-Alanine, reference compound]" modifier== result_number=1.81
compound=N[C@@H](CO)C(=O)O modifier== result_number=1.85

====

test system: cats; experiment: 2-bottle taste choice test, cat water panel, 18-h exposure; format: in vivo, domestic cat (Felis catus); conditions: amino acid 25 mM versus water
property measured: Intake diff.

substance_smiles=N[C@@H](CO)C(=O)O property_measured="Intake diff." result="25.3 g"
substance_smiles=NCC(=O)O property_measured="Intake diff." result="20.8 g"
substance_smiles=N[C@@H](Cc1c[nH]cn1)C(=O)O property_measured="Intake diff." result="43.7 g"
substance_smiles=NC(=O)C[C@H](N)C(=O)O property_measured="Intake diff." result="35.9 g"

====

target: cat Tas1r1-Tas1r3 (Felis catus); assay: Calcium mobilization assay (FLIPR) in HEK293T cells expressing cat Tas1r1-Tas1r3 and mGα15i1; conditions: read-out: wIMP EC50; L-amino acid with 0.2 mM IMP
property measured: EC50 (mM)

substance_smiles=NC(=O)C[C@H](N)C(=O)O readout_unit=mM result_number=15.7

====

tested on: cats; assay: 2-bottle taste choice test, cat water panel, 18-h exposure; format: in vivo, domestic cat (Felis catus); conditions: nucleotide 5 mM versus water
property measured: Intake diff. (g)

molecule="Nc1nc2c(ncn2[C@@H]2O[C@H](COP(=O)(O)O)[C@@H](O)[C@H]2O)c(=O)[nH]1 [GMP, Guanosine 5ʹ-monophosphate]" target_under_test=cats readout_unit=g result_number=78.8
molecule="Nc1ccn([C@@H]2O[C@H](COP(=O)(O)O)[C@@H](O)[C@H]2O)c(=O)n1 [CMP, Cytidine 5ʹ-monophosphate]" target_under_test=cats readout_unit=g result_number=69.5
molecule="O=c1ccn([C@@H]2O[C@H](COP(=O)(O)O)[C@@H](O)[C@H]2O)c(=O)[nH]1 [UMP, Uridine 5ʹ-monophosphate]" target_under_test=cats readout_unit=g result_number=67.0
molecule="Nc1ncnc2c1ncn2[C@@H]1O[C@H](COP(=O)(O)O)[C@@H](O)[C@H]1O [AMP, Adenosine 5ʹ-monophosphate]" target_under_test=cats readout_unit=g result_number=25.4
